Where these numbers come from: the ASAP Discovery antiviral challenge data (2025)

Class key for solubility kinetic values: low group (below 30 µM), middle group (30 µM to below 300 µM), high group (300 µM or more)

Class? Entry: CC(C)[C@H](Nc1ncnc2[nH]c(-c3cnn(CC(N)=O)c3)cc12)c1ccc2c(n1)OCCO2 (racemic)
high group

Next:
Which bin, given its solubility kinetic, does COCc1cc(Cl)cc([C@H](Nc2ccc3c(c2)CNC3)C(=O)NCC(F)F)c1 (racemic) occupy?
middle group

* * *

Reported solubility kinetic values for a set of molecules
Field format: number, assumed µM, no unit text.

Identify the reported solubility kinetic for the following entry. O=C(O)c1cc(Cl)ccc1NS(=O)(=O)c1ccc(Oc2ccccc2Cl)cc1
369

For the molecule CNC(=O)[C@H](Nc1cc(Cl)cc(NC(=O)OCc2ccccc2)c1)c1cccc(-c2nn[nH]n2)c1 (racemic) , give its measured solubility kinetic value.
333

***
Tell us which solubility kinetic value is on record for NCc1cc(C(=O)O)cc([C@@H]2C[C@H]2c2cc(Cl)cc(NC(=O)OCc3ccccc3)c2)c1 (racemic)
52

* * *

- Condition Parameters: human; liver_microsomes
Assign Yes to entries whose microsomal CLint meets or exceeds 100 µL/min/mg; assign No to the rest.

Assess whether reported microsomal CLint for CC(C)[C@H](Nc1ncnc2[nH]c(-c3cnn(C)c3C#N)cc12)c1ccc2c(c1)OCCO2 sits at 100 µL/min/mg or higher.
Yes

* * *

Below is a list of entries, each paired with its recorded logD value.
Number only, please.

Answer with reported logD of CC(C)[C@H](Nc1ncnc2[nH]c(-c3cnn(C)c3C#N)cc12)c1ccc2c(n1)NC(=O)CO2 (racemic)
3.7

Quick one: give measured logD for CC(C)[C@H](Nc1ncnc2[nH]cc(C(=O)NC3CC3)c12)c1ccc2c(c1)S(=O)(=O)CCC2 (racemic)
3.1

Tell me its logD given CC(C)[C@H](Nc1ncnc2[nH]c(-c3ccc4nnn(C)c4c3)cc12)c1ccc2c(c1)S(=O)(=O)CCC2 (racemic) as the entry.
3.4

Report logD, nothing else, for this compound: CC(C)[C@H](Nc1ncnc2[nH]c(-c3cnn(CC(=O)N(C)C)c3)cc12)c1ccc2c(c1)S(=O)(=O)CCC2 (single isomer, unassigned)
2.2

Consider the compound COc1ccc([C@H](NC(=O)c2ncnc3[nH]ccc23)C(C)c2nnn[nH]2)cc1 (mixture of isomers) . State its measured logD.
0

More entries:
State its logD for this compound: CO[C@H]1C[C@H](n2ncc3c(C(=O)Nc4ccc5c(c4)CNC5)cc(Cl)cc32)C1
1.5

Answer with the recorded logD of O=C(NCC(F)F)[C@H](Nc1ccc2c(c1)CNC2)c1cc(Br)cc2nc[nH]c12 (racemic) only.
0.4

Supply measured logD of O=C(Nc1ccc2c(c1)CNC2)c1cc(Cl)cc2c1cnn2C1CCC1 in your reply.
2

* * *

Sorting guide: entries reporting logD beneath 1 go in the 1 pile, the rest go in the 0 pile.

Known results for compounds:
Report whether reported logD is lower than 1 (strictly) for CC(C)[C@H](Nc1ncnc2[nH]ccc12)c1ccc2c(c1)S(=O)(=O)CCO2 (racemic)
0

is_below(logD, 1) for NCc1cc(Cl)cc(C(=O)Nc2ccc3c(c2)CNC3)c1 ?
0

Hello, is logD of the following compound strictly smaller than 1? CNC(=O)[C@H](Nc1ccc(-c2nnn[nH]2)cc1)c1cc(Cl)cc(C2CC2)c1 (racemic)
0

Report whether reported logD is lower than 1 (strictly) for N#C[C@H](Nc1ccc2c(c1)CNC2)c1cc(Cl)cc2[nH]ncc12 (racemic)
1

Identify whether the compound Cn1cc2c(C(=O)Nc3ccc4c(c3)CNC4)cc(F)cc2n1 records logD below 1.
1

Others:
Just wondering, is logD of C[C@H](C(=O)O)[C@@H](NC(=O)c1ncnc2[nH]ccc12)c1ccc(Br)cc1 (single isomer, unassigned) below 1?
1

logD strictly < 1 for this compound? CC(C)[C@@H](Nc1ncnc2[nH]c(-c3cnn(C)c3C#N)cc12)c1ccc2c(c1)OCCO2
0

Just wondering, is logD of O=C(O)c1cc(Cl)c(F)cc1S(=O)(=O)Nc1ccc(Oc2ccccc2Cl)cc1 below 1?
0

Dear colleague, could you confirm whether logD of CC(C)(C)[C@H](Nc1ncnc2[nH]c(-c3cnn(CC(N)=O)c3)cc12)c1ccc2c(n1)OCCO2 (racemic) falls below 1? Thanks.
0

Record NCc1cccc(NC(=O)[C@H](NC(=O)OCc2ccccc2)C2CCCCC2)c1 (racemic) : is its logD strictly below 1?
0

Does the reported logD of the following compound sit strictly below 1? CCNC(=O)c1cc2c(N[C@H](c3ccc4c(c3)S(=O)(=O)CCO4)C(C)C)ncnc2[nH]1 (racemic)
0

Report whether reported logD is lower than 1 (strictly) for CNC(=O)[C@H](Nc1ccc2c(c1)CNC2)c1cc(Cl)cc(C2CC2)c1 (racemic)
1

Here's an entry: CNC(=O)c1cc2c(N[C@H](c3ccc4c(c3)NC(=O)CO4)C(C)C)ncnc2[nH]1 (racemic) . Is its logD below 1?
0

Record CC(C)NC(=O)[C@H](Nc1ccc2c(c1)CNC2)c1cc(Cl)cc2[nH]c(-c3ccccc3)nc12 (single isomer, unassigned) : is its logD strictly below 1?
0

Dear reviewer, please state whether O=C(NCC(F)F)[C@H](Nc1ccc2c(c1)CNC2)c1cc(Cl)cc2c1CCC2 (racemic) has logD strictly beneath 1.
0

Lab log: compare recorded logD with 1; is it strictly lower for O=C(N[C@H]1[C@H]2CCCCC[C@H]2[C@H]1C(=O)Nc1cccc(C2CCNCC2)c1)OCc1ccccc1 (racemic) ?
0

Field: below-cutoff. Rule: recorded logD strictly less than 1. Subject: C[C@H](C(=O)O)[C@H](NC(=O)c1ncnc2[nH]ccc12)c1ccc(Br)cc1 (mixture of isomers)
1
